# MEASUREMENT NOTES: Semi thermodynamic solubility
# CONDITION SET: thermodynamic from solid
Given measured solubility thermodynamic, output 1.0 if it is greater than or equal to 20 µM and 0.0 if not.

Has O=[N+]([O-])c1ccc2nc(Nc3ccc(Cl)cc3)c(Nc3ccc(Cl)cc3)nc2c1 [Compound 4] a recorded solubility thermodynamic greater than or equal to 20 µM? 0.0

----------
Would you kindly list MRT last for each of these molecules?
# MEASUREMENT NOTES: Mouse pharmacokinetics, oral cassette dosing
# CONDITION SET: male, C57/BL6, mouse, plasma, po, 2.5 mg/kg
One number for each entry, in h.

1) CCCCCC(=O)Nc1ccc2nc(Nc3ccc(Cl)c(Cl)c3)c(Nc3ccc(Cl)c(Cl)c3)nc2c1 [Compound 18] = 3.86
2) O=[N+]([O-])c1ccc2nc(Nc3ccc(C(F)(F)F)cc3)c(Nc3ccc(C(F)(F)F)cc3)nc2c1 [Compound 11] = 6.5
3) COc1ccc(Nc2nc3ccc([N+](=O)[O-])cc3nc2Nc2ccc(OC)c(C(F)(F)F)c2)cc1C(F)(F)F [Compound 12] = 4.76
4) O=[N+]([O-])c1ccc2nc(Nc3ccc(Cl)cc3)c(Nc3ccc(Cl)cc3)nc2c1 [Compound 4] = 4.25
5) O=[N+]([O-])c1ccc2nc(Nc3cc(C(F)(F)F)ccc3F)c(Nc3cc(C(F)(F)F)ccc3F)nc2c1 [Compound 9] = 4.22

Consider the record given below.
Give the reported value of MRT last for this record: O=[N+]([O-])c1ccc2nc(Nc3ccc(F)c(C(F)(F)F)c3)c(Nc3ccc(F)c(C(F)(F)F)c3)nc2c1 [Compound 7] 4.75

----------
Would you kindly list MIC for each of these compounds?
# Test system: Enterococcus faecalis NCTC 12201
# MEASUREMENT NOTES: Antibacterial MIC (ISO 20776-1)
# Type: cell-based
# CONDITION SET: NCTC12201; Enterococcus faecalis NCTC 12201, Vancomycin resistance, vanA
# From the text: In vitro Determination of Antibacterial Activity Scientific Reports 8 (1), 2018. […]
Respond with a number, then the unit of measure.

Here's what some known entries look like.
1. O=[N+]([O-])c1ccc2nc(Nc3ccc(C(F)(F)F)cc3)c(Nc3ccc(C(F)(F)F)cc3)nc2c1 = 0.06 mg/L
2. O=C(Nc1ccc2nc(Nc3ccc(Cl)c(Cl)c3)c(Nc3ccc(Cl)c(Cl)c3)nc2c1)c1ccco1 = 0.25 mg/L

Dear colleague, could you please provide MIC for the compounds listed below?
1. COc1ccc(Nc2nc3ccc([N+](=O)[O-])cc3nc2Nc2ccc(OC)c(C(F)(F)F)c2)cc1C(F)(F)F
2. O=[N+]([O-])c1ccc2nc(Nc3ccc(F)c(C(F)(F)F)c3)c(Nc3ccc(F)c(C(F)(F)F)c3)nc2c1
3. O=[N+]([O-])c1ccc2nc(Nc3cccc(Cl)c3)c(Nc3cccc(Cl)c3)nc2c1

1. 0.5 mg/L
2. 0.5 mg/L
3. 0.06 mg/L

----------
Would you kindly list MIC for each of these molecules?
# Test system: Haemophilus influenzae 18391
# MEASUREMENT NOTES: Antibacterial MIC (ISO 20776-1)
# Assay type: cell-based
# CONDITION SET: Haemophilus influenzae 18391, AMP/COA resistance, PBP/β-lactamase

Here's what some known entries look like.
1) O=[N+]([O-])c1ccc2nc(Nc3ccc(C(F)(F)F)cc3)c(Nc3ccc(C(F)(F)F)cc3)nc2c1 = 16 µg/mL
2) O=C(Nc1ccc2nc(Nc3ccc(Cl)c(Cl)c3)c(Nc3ccc(Cl)c(Cl)c3)nc2c1)c1ccco1 = 64 µg/mL
3) COc1ccc(Nc2nc3ccc([N+](=O)[O-])cc3nc2Nc2ccc(OC)c(C(F)(F)F)c2)cc1C(F)(F)F = 64 µg/mL
4) O=[N+]([O-])c1ccc2nc(Nc3ccc(F)c(C(F)(F)F)c3)c(Nc3ccc(F)c(C(F)(F)F)c3)nc2c1 = > 64 µg/mL

Consider the record given below.
Give the reported value of MIC for this record: `O=[N+]([O-])c1ccc2nc(Nc3cccc(Cl)c3)c(Nc3cccc(Cl)c3)nc2c1` 8 µg/mL

----------
Would you kindly list log10 of microsomal CLint at 1 μM for each of these molecules?
# MEASUREMENT NOTES: Metabolic stability in mouse liver microsomes
# CONDITION SET: liver microsomes
All values: log10 microsomal CLint at 1 μM [µL/min/mg].

1) O=[N+]([O-])c1ccc2nc(Nc3cc(C(F)(F)F)ccc3F)c(Nc3cc(C(F)(F)F)ccc3F)nc2c1 = 1.20
2) O=[N+]([O-])c1ccc2nc(Nc3ccc(C(F)(F)F)cc3)c(Nc3ccc(C(F)(F)F)cc3)nc2c1 = -0.87
3) COc1ccc(Nc2nc3ccc([N+](=O)[O-])cc3nc2Nc2ccc(OC)c(C(F)(F)F)c2)cc1C(F)(F)F = 1.03

Dear colleague, could you please provide log10 of microsomal CLint at 1 μM for the molecules listed below?
1. O=[N+]([O-])c1ccc2nc(Nc3ccc(Cl)cc3)c(Nc3ccc(Cl)cc3)nc2c1
2. CCCCCC(=O)Nc1ccc2nc(Nc3ccc(Cl)c(Cl)c3)c(Nc3ccc(Cl)c(Cl)c3)nc2c1

1. 0.96
2. 1.57

----------
# MEASUREMENT NOTES: Mouse pharmacokinetics, oral cassette dosing
# CONDITION SET: male, C57/BL6, mouse, plasma, po, 2.5 mg/kg
MEASURE: MRT inf (h)
Answers are plain numbers, in h.

Give the reported value of MRT inf for this record: `O=[N+]([O-])c1ccc2nc(Nc3ccc(C(F)(F)F)cc3)c(Nc3ccc(C(F)(F)F)cc3)nc2c1` 7.84

----------
# System: S. epidermidis NTCT11077
# MEASUREMENT NOTES: In vitro antibacterial activity
# Format: cell-based
# CONDITION SET: Staphylococcus epidermidis, NTCT11077
Would you kindly list MIC90 for each of these compounds?

1. O=[N+]([O-])c1ccc2nc(Nc3cccc(Cl)c3)c(Nc3cccc(Cl)c3)nc2c1 = < 62.5 µg/mL
2. O=[N+]([O-])c1ccc2nc(Nc3ccc(F)c(C(F)(F)F)c3)c(Nc3ccc(F)c(C(F)(F)F)c3)nc2c1 = < 62.5 µg/mL
3. O=C(Nc1ccc2nc(Nc3ccc(Cl)c(Cl)c3)c(Nc3ccc(Cl)c(Cl)c3)nc2c1)c1ccco1 = 125 µg/mL

Dear colleague, could you please provide MIC90 for the compounds listed below?
1. CC(=O)Nc1ccc2nc(Nc3ccc(Cl)c(Cl)c3)c(Nc3ccc(Cl)c(Cl)c3)nc2c1
2. CCCCCC(=O)Nc1ccc2nc(Nc3ccc(Cl)c(Cl)c3)c(Nc3ccc(Cl)c(Cl)c3)nc2c1
3. Clc1ccc(Nc2nc3ccc(N4CCCC4)cc3nc2Nc2ccc(Cl)c(Cl)c2)cc1Cl

["< 62.5 µg/mL", "> 125 µg/mL", "> 125 µg/mL"]

----------
# MEASUREMENT NOTES: MTT assay on HepG2 cells
# Assay type: cell-based
# CONDITION SET: human
Would you kindly list CC50 at 24 h for each of these molecules?
One number for each entry, in µM.

Here's what some known entries look like.
1. O=[N+]([O-])c1ccc2nc(Nc3cc(C(F)(F)F)ccc3F)c(Nc3cc(C(F)(F)F)ccc3F)nc2c1 [Compound 9] = 106
2. O=[N+]([O-])c1ccc2nc(Nc3ccc(F)cc3)c(Nc3ccc(F)cc3)nc2c1 [Compound 6] = 22
3. O=[N+]([O-])c1ccc2nc(Nc3ccc(C(F)(F)F)cc3)c(Nc3ccc(C(F)(F)F)cc3)nc2c1 [Compound 11] = 15.6
4. Cc1cccc(Nc2nc3ccc([N+](=O)[O-])cc3nc2Nc2cccc(C)c2)c1 [Compound 21] = 15.6

Give the reported value of CC50 at 24 h for this record: c1ccc(/N=c2\sc3ccccc3s\c2=N/c2ccccc2)cc1 [Compound 20] 13.8

----------
# MEASUREMENT NOTES: Mouse pharmacokinetics, oral cassette dosing
# CONDITION SET: male, C57/BL6, mouse, plasma, po, 2.5 mg/kg
Would you kindly list Cmax for each of these compounds?
Numbers only, in ng/mL.

1. O=[N+]([O-])c1ccc2nc(Nc3ccc(F)c(C(F)(F)F)c3)c(Nc3ccc(F)c(C(F)(F)F)c3)nc2c1 [Compound 7] = 21.2
2. O=[N+]([O-])c1ccc2nc(Nc3ccc(Cl)cc3)c(Nc3ccc(Cl)cc3)nc2c1 [Compound 4] = 90.4
3. O=[N+]([O-])c1ccc2nc(Nc3ccc(C(F)(F)F)cc3)c(Nc3ccc(C(F)(F)F)cc3)nc2c1 [Compound 11] = 68.8

Dear colleague, could you please provide Cmax for the compounds listed below?
1. O=[N+]([O-])c1ccc2nc(Nc3cc(C(F)(F)F)ccc3F)c(Nc3cc(C(F)(F)F)ccc3F)nc2c1 [Compound 9]
2. COc1ccc(Nc2nc3ccc([N+](=O)[O-])cc3nc2Nc2ccc(OC)c(C(F)(F)F)c2)cc1C(F)(F)F [Compound 12]

[79.3, 20.1]

Give the reported value of Cmax for this record: CCCCCC(=O)Nc1ccc2nc(Nc3ccc(Cl)c(Cl)c3)c(Nc3ccc(Cl)c(Cl)c3)nc2c1 [Compound 18] 16.4
